Tested on: Brassica napus
protocol.notes: Herbicidal activity against Brassica napus (oilseed rape) assessed as inhibition of root growth at 100 mg/L using pre-emergence exposure protocol after 5 days
Format: functional
run.conditions: 120 h, read-out: GI
Outcome label depends on inhibition of growth at 100 µg/mL relative to 90%: at/above gives satisfied, below gives not satisfied.

A selection of reference data follows.
{"cpd.smiles": "Cc1onc(-c2ccccc2F)c1-c1csc(C2CCN(C(=O)NC(C)C)CC2)n1", "classification": "not satisfied"}
{"cpd.smiles": "Cc1onc(-c2ccccc2F)c1-c1csc(C2CCN(C(=O)Nc3ccc(F)cc3)CC2)n1", "classification": "satisfied"}

# next compound below
In plain terms: is recorded inhibition of growth at 100 µg/mL at least 90% for COc1ccc(-c2noc(C)c2-c2csc(C3CCN(C(=O)Nc4ccc(F)cc4)CC3)n2)cc1 ?
not satisfied

* * *

Quick list: inhibition of growth at 10 µg/mL per entry.
Tested on: Brassica napus
protocol.notes: Herbicidal activity against Brassica napus (oilseed rape) assessed as inhibition of root growth at 10 mg/L using pre-emergence exposure protocol after 5 days
Type: functional
run.conditions: 120 h, read-out: GI
Answer in %, number only, no unit symbol.

{"cpd.smiles": "Cc1onc(-c2ccc(F)cc2)c1-c1csc(C2CCN(C(=O)Nc3ccc(F)cc3)CC2)n1", "inhibition of growth at 10 µg/mL [%]": 35.8}

Endpoint output: inhibition of growth at 10 µg/mL of Cc1onc(-c2ccc(Cl)cc2Cl)c1-c1csc(C2CCN(C(=O)Nc3ccc(F)cc3)CC2)n1 . Value?
34.9

Endpoint output: inhibition of growth at 10 µg/mL of Cc1onc(-c2ccccc2)c1-c1csc(C2CCN(C(=O)Nc3ccccc3)CC2)n1 . Value?
51.4

Endpoint output: inhibition of growth at 10 µg/mL of Cc1onc(-c2ccc(F)cc2)c1-c1csc(C2CCN(C(=O)Nc3ccccc3)CC2)n1 . Value?
46.9

Endpoint output: inhibition of growth at 10 µg/mL of CCCCNC(=O)N1CCC(c2nc(-c3c(-c4ccc(F)cc4)noc3C)cs2)CC1 . Value?
67.8

Endpoint output: inhibition of growth at 10 µg/mL of Cc1onc(-c2ccccc2)c1-c1csc(C2CCN(C(=O)Nc3ccc(F)cc3)CC2)n1 . Value?
66.3

Endpoint output: inhibition of growth at 10 µg/mL of Cc1onc(-c2ccccc2F)c1-c1csc(C2CCN(C(=O)NC(C)C)CC2)n1 . Value?
68.5

Endpoint output: inhibition of growth at 10 µg/mL of COc1ccc(-c2noc(C)c2-c2csc(C3CCN(C(=O)Nc4ccc(F)cc4)CC3)n2)cc1 . Value?
46.9

Endpoint output: inhibition of growth at 10 µg/mL of Cc1onc(-c2ccccc2F)c1-c1csc(C2CCN(C(=O)Nc3ccc(F)cc3)CC2)n1 . Value?
52.3

Endpoint output: inhibition of growth at 10 µg/mL of Cc1onc(-c2ccc(F)cc2)c1-c1csc(C2CCN(C(=S)Nc3ccccc3)CC2)n1 . Value?
54.1

Endpoint output: inhibition of growth at 10 µg/mL of CCCCNC(=O)N1CCC(c2nc(-c3c(-c4ccccc4F)noc3C)cs2)CC1 . Value?
61.5

Endpoint output: inhibition of growth at 10 µg/mL of Cc1onc(-c2ccc(F)cc2)c1-c1csc(C2CCN(C(=O)NC(C)C)CC2)n1 . Value?
68.8

Endpoint output: inhibition of growth at 10 µg/mL of Cc1onc(-c2ccccc2F)c1-c1csc(C2CCN(C(=O)Nc3ccccc3)CC2)n1 . Value?
56.2

Endpoint output: inhibition of growth at 10 µg/mL of COc1ccc(-c2noc(C)c2-c2csc(C3CCN(C(=O)Nc4ccccc4)CC3)n2)cc1 . Value?
20.2

Endpoint output: inhibition of growth at 10 µg/mL of Cc1onc(-c2ccccc2F)c1-c1csc(C2CCN(C(=S)Nc3ccccc3)CC2)n1 . Value?
64.2

* * *

Test system: Echinochloa crus-galli
protocol.notes: Herbicidal activity against Echinochloa crus-galli (barnyard grass) assessed as inhibition of root growth at 10 mg/L using pre-emergence exposure protocol after 5 days
Format: functional
run.conditions: 120 h, read-out: GI
measurement.label: inhibition of growth at 10 µg/mL (%)
Answer in %, number only, no unit symbol.

Worked cases, answers included:
{"cpd.smiles": "Cc1onc(-c2ccccc2F)c1-c1csc(C2CCN(C(=S)Nc3ccccc3)CC2)n1", "unit.descriptor": "%", "inhibition of growth at 10 µg/mL": 48.4}
{"cpd.smiles": "Cc1onc(-c2ccc(F)cc2)c1-c1csc(C2CCN(C(=O)Nc3ccc(F)cc3)CC2)n1", "unit.descriptor": "%", "inhibition of growth at 10 µg/mL": 35.5}
{"cpd.smiles": "COc1ccc(-c2noc(C)c2-c2csc(C3CCN(C(=O)Nc4ccccc4)CC3)n2)cc1", "unit.descriptor": "%", "inhibition of growth at 10 µg/mL": 45.7}
{"cpd.smiles": "COc1ccc(-c2noc(C)c2-c2csc(C3CCN(C(=O)Nc4ccc(F)cc4)CC3)n2)cc1", "unit.descriptor": "%", "inhibition of growth at 10 µg/mL": 59.1}
{"cpd.smiles": "CCCCNC(=O)N1CCC(c2nc(-c3c(-c4ccc(F)cc4)noc3C)cs2)CC1", "unit.descriptor": "%", "inhibition of growth at 10 µg/mL": 71}

Endpoint output: inhibition of growth at 10 µg/mL of Cc1onc(-c2ccccc2F)c1-c1csc(C2CCN(C(=O)Nc3ccc(F)cc3)CC2)n1 . Value?
64.5

Endpoint output: inhibition of growth at 10 µg/mL of Cc1onc(-c2ccccc2)c1-c1csc(C2CCN(C(=O)Nc3ccc(F)cc3)CC2)n1 . Value?
54.8

Endpoint output: inhibition of growth at 10 µg/mL of CCCCNC(=O)N1CCC(c2nc(-c3c(-c4ccccc4F)noc3C)cs2)CC1 . Value?
58.1

Endpoint output: inhibition of growth at 10 µg/mL of Cc1onc(-c2ccccc2F)c1-c1csc(C2CCN(C(=O)Nc3ccccc3)CC2)n1 . Value?
56.5

* * *

Tested on: Brassica napus
protocol.notes: Herbicidal activity against Brassica napus (oilseed rape) assessed as inhibition of root growth at 100 mg/L using pre-emergence exposure protocol after 5 days
Format: functional
run.conditions: 120 h, read-out: GI
Quick list: inhibition of growth at 100 µg/mL per entry.
Answer in %, number only, no unit symbol.

Endpoint output: inhibition of growth at 100 µg/mL of CCCCNC(=O)N1CCC(c2nc(-c3c(-c4ccc(F)cc4)noc3C)cs2)CC1 . Value?
88.1

Endpoint output: inhibition of growth at 100 µg/mL of COc1ccc(-c2noc(C)c2-c2csc(C3CCN(C(=O)Nc4ccccc4)CC3)n2)cc1 . Value?
43.8

Endpoint output: inhibition of growth at 100 µg/mL of CCCCNC(=O)N1CCC(c2nc(-c3c(-c4ccccc4F)noc3C)cs2)CC1 . Value?
86.2

Endpoint output: inhibition of growth at 100 µg/mL of Cc1onc(-c2ccccc2F)c1-c1csc(C2CCN(C(=S)Nc3ccccc3)CC2)n1 . Value?
92.7

Endpoint output: inhibition of growth at 100 µg/mL of Cc1onc(-c2ccc(F)cc2)c1-c1csc(C2CCN(C(=O)Nc3ccc(F)cc3)CC2)n1 . Value?
76.1

Endpoint output: inhibition of growth at 100 µg/mL of Cc1onc(-c2ccc(F)cc2)c1-c1csc(C2CCN(C(=O)Nc3ccccc3)CC2)n1 . Value?
83.3

* * *

Tested on: Echinochloa crus-galli
protocol.notes: Herbicidal activity against Echinochloa crus-galli (barnyard grass) assessed as inhibition of stalk growth at 100 mg/L using pre-emergence exposure protocol after 5 days
Assay type: functional
run.conditions: 120 h, read-out: GI
Outcome label depends on inhibition of growth at 100 µg/mL relative to 60%: at/above gives satisfied, below gives not satisfied.

A selection of reference data follows.
{"cpd.smiles": "Cc1onc(-c2ccc(F)cc2)c1-c1csc(C2CCN(C(=S)Nc3ccccc3)CC2)n1", "classification": "satisfied"}
{"cpd.smiles": "Cc1onc(-c2ccccc2F)c1-c1csc(C2CCN(C(=O)Nc3ccccc3)CC2)n1", "classification": "not satisfied"}
{"cpd.smiles": "Cc1onc(-c2ccccc2)c1-c1csc(C2CCN(C(=O)Nc3ccccc3)CC2)n1", "classification": "satisfied"}
{"cpd.smiles": "Cc1onc(-c2ccc(F)cc2)c1-c1csc(C2CCN(C(=O)Nc3ccccc3)CC2)n1", "classification": "not satisfied"}
{"cpd.smiles": "CCCCNC(=O)N1CCC(c2nc(-c3c(-c4ccccc4F)noc3C)cs2)CC1", "classification": "satisfied"}
{"cpd.smiles": "Cc1onc(-c2ccc(F)cc2)c1-c1csc(C2CCN(C(=O)NC(C)C)CC2)n1", "classification": "satisfied"}

In plain terms: is recorded inhibition of growth at 100 µg/mL at least 60% for CCCCNC(=O)N1CCC(c2nc(-c3c(-c4ccc(F)cc4)noc3C)cs2)CC1 ?
satisfied

In plain terms: is recorded inhibition of growth at 100 µg/mL at least 60% for Cc1onc(-c2ccc(F)cc2)c1-c1csc(C2CCN(C(=O)Nc3ccc(F)cc3)CC2)n1 ?
not satisfied

In plain terms: is recorded inhibition of growth at 100 µg/mL at least 60% for Cc1onc(-c2ccc(Cl)cc2Cl)c1-c1csc(C2CCN(C(=O)Nc3ccc(F)cc3)CC2)n1 ?
satisfied

In plain terms: is recorded inhibition of growth at 100 µg/mL at least 60% for Cc1onc(-c2ccccc2F)c1-c1csc(C2CCN(C(=O)NC(C)C)CC2)n1 ?
not satisfied

In plain terms: is recorded inhibition of growth at 100 µg/mL at least 60% for COc1ccc(-c2noc(C)c2-c2csc(C3CCN(C(=O)Nc4ccccc4)CC3)n2)cc1 ?
not satisfied

In plain terms: is recorded inhibition of growth at 100 µg/mL at least 60% for COc1ccc(-c2noc(C)c2-c2csc(C3CCN(C(=O)Nc4ccc(F)cc4)CC3)n2)cc1 ?
not satisfied

In plain terms: is recorded inhibition of growth at 100 µg/mL at least 60% for Cc1onc(-c2ccccc2)c1-c1csc(C2CCN(C(=O)Nc3ccc(F)cc3)CC2)n1 ?
not satisfied

In plain terms: is recorded inhibition of growth at 100 µg/mL at least 60% for Cc1onc(-c2ccccc2F)c1-c1csc(C2CCN(C(=O)Nc3ccc(F)cc3)CC2)n1 ?
satisfied
